Listed compounds paired with reported ΔTm
Molecular target: Serine/threonine-protein kinase 10 (Homo sapiens) (UniProt O94804)
Sequence (O94804 whole entry, looked up): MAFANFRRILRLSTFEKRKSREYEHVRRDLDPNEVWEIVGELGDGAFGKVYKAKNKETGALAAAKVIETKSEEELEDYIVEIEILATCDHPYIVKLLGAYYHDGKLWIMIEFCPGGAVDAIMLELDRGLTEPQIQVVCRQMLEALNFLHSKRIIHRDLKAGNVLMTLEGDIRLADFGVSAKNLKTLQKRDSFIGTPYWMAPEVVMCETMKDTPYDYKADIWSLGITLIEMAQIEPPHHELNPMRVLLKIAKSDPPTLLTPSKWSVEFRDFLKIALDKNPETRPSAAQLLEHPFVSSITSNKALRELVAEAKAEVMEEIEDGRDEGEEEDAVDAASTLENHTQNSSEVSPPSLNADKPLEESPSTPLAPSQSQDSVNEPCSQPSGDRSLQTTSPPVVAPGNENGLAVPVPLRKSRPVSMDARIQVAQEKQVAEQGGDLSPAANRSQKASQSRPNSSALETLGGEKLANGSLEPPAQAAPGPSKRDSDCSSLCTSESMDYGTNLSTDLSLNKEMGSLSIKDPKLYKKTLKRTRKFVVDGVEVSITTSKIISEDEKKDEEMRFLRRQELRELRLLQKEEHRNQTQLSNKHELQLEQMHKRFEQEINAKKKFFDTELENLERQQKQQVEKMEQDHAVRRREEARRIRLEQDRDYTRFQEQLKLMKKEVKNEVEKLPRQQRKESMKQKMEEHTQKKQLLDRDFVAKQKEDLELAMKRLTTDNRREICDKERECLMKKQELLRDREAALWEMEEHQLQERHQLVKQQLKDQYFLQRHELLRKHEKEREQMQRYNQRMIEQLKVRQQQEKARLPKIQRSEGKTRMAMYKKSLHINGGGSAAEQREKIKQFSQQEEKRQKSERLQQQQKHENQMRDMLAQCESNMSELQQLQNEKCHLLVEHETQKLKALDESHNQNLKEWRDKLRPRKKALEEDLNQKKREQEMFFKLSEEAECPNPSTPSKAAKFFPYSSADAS

| Compound | ΔTm [°C] |
| --- | --- |
| COc1cc(C[C@H]2C(=O)OC[C@@H]2Cc2ccc(OC)c(OC)c2)ccc1O [ARCTIGENIN] | 0.7 |
| COc1cccc(-c2cc(=O)c3ccccc3o2)c1N | 0.4 |
| Cc1ccc(NC(=O)c2ccc(CN3CCN(C)CC3)cc2)cc1Nc1nccc(-c2cccnc2)n1 | 0.8 |
| Nc1n[nH]c2nnc(-c3c(-c4ccccc4)nn4ccccc34)cc12 | -0.2 |
| CCOc1cc2ncnc(Nc3cccc(Br)c3)c2cc1OCC | 10.3 |
| Brc1c(Br)c(Br)c2[nH]nnc2c1Br [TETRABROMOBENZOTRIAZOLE] | 0 |
| CC(C)(C)n1nc(-c2cccc3ccccc23)c2c(N)ncnc21 | 4 |
| O=c1sn(Cc2ccccc2)c(=S)n1Cc1ccccc1 | 0.9 |
| COc1nccc(-c2c(-c3ccc(F)cc3)ncn2[C@H]2CC[C@H](O)CC2)n1 | 1.9 |
| O=C1Nc2ccc(I)cc2/C1=C1/Nc2ccccc2/C1=N\O | 0 |
| O=C1NC(=O)C(c2cn(CCCn3ccnc3)c3ccccc23)=C1Nc1ccccc1 | 2 |
| Cc1nc(N)sc1-c1ccnc(Nc2cccc([N+](=O)[O-])c2)n1 | 1.5 |
| Cc1cc(Nc2nc(-c3ccccc3)nc3ccccc23)n[nH]1 | 11.1 |
| O=c1c(-c2ccc(O)cc2)coc2cc(O)cc(O)c12 | 0 |
| Nc1nc(Nc2ccc(S(N)(=O)=O)cc2)nn1C(=S)Nc1c(F)cccc1F | 15.5 |
| Cn1cc(C2=C(c3cn(CCCSC(=N)N)c4ccccc34)C(=O)NC2=O)c2ccccc21 | 7.5 |
| CN(C)CCCn1cc(C2=C(c3c[nH]c4ccccc34)C(=O)NC2=O)c2ccccc21 [GF-109203] | 6.7 |
| NCCNc1ncc(C(N)=O)c(Nc2cccc(C(F)(F)F)c2)n1 | 2.8 |
| CC(C)(C)n1nc(-c2ccc(Cl)cc2)c2c(N)ncnc21 | 4.7 |
| O=C1Nc2ccc(I)cc2/C1=C\c1cc(Br)c(O)c(Br)c1 | 0.5 |
| COc1cc2ncnc(Nc3cccc(Br)c3)c2cc1OC | 7.4 |
| COc1ccc(COc2ccc(Cc3cnc(N)nc3N)cc2OC)cc1 | -0.5 |
| C/C(O)=C(\C#N)C(=O)Nc1cc(Br)ccc1Br | 0.9 |
| CC(C)n1cnc2c(NCc3ccccc3O)nc(NCCCO)nc21 | 0.5 |
| CCN1/C(=C/C(C)=O)Sc2ccc(OC)cc21 | 0.4 |
| O=C1Nc2ccccc2/C1=C/c1cnc[nH]1 | 4.2 |
| N#CCCc1ccc2c(c1)-c1[nH]c3ccc([N+](=O)[O-])cc3c1CC(=O)N2 [ALSTERPAULLONE 2] | 4 |
| N#CC(C#N)=Cc1ccc(O)c(O)c1 [TYRPHOSTIN 23] | 0.5 |
| C[S+]([O-])c1ccc(CSc2nc(-c3ccc(F)cc3)c(-c3ccncc3)[nH]2)cc1 (stereo unspecified) | 0.8 |
| COC(=O)[C@]1(O)C[C@@H]2O[C@@]1(C)n1c3ccccc3c3c4c(c5c6ccccc6n2c5c31)C(=O)NC4 (single isomer, unassigned) | 10.9 |
| Nc1ncnc2c1c(I)cn2[C@@H]1O[C@H](CO)[C@@H](O)[C@H]1O | 4.7 |
| CN(C)c1ncnc2nc[nH]c12 [DIMETHYLADENINE] | -0.4 |
| CSc1nc(-c2ccc(F)cc2)c(-c2ccnc(NC(C)c3ccccc3)c2)[nH]1 (racemic) | 1.9 |
| Nc1nccc(-c2c(-c3ccc(F)cc3)ncn2C2CCNCC2)n1 | 1.5 |
| O=c1c(O)c(-c2ccc(O)c(O)c2)oc2cc(O)cc(O)c12 [QUERCETIN] | 5.5 |
| O=C1C=C2C(=Nc3c2c2c(c4c3=NC3=C4CCC=C3)C=NC=2)CC1 | 3.9 |
